System: BT-549 breast
Assay: NCI tumour cell line growth inhibition, 48 h
Observed Property: TGI

Examples with their reported TGI follow.
Compound	Observed Property	Result
CC(C)(C)OC(=O)CN1C(=O)CC1CC(=O)c1ccccc1 (stereo unspecified)	TGI	35.5 µM
c1ccc2c(c1)CC1=C(O2)c2ccccc2OC1	TGI	51.1 µM
Cc1cc2c(cc1Cl)SC1=NN(C)S(=O)N1S2(=O)=O (stereo unspecified)	TGI	> 100 µM
COc1ccc(C(=O)c2sc(N(C)C)nc2-c2ccccc2)cc1	TGI	75.6 µM
CCN(CC)CCn1nc(N)c2nc3ccccc3nc21	TGI	> 100 µM

Read the next record carefully.
Summary for this compound, "COc1cc[nH]c1/C=C1\C(=O)Nc2ccc(F)c(C#CC3(O)CCNCC3)c21" : TGI is 0.696 µM

* * *

Tested on: IGROV1 ovarian
Assay: NCI tumour cell line growth inhibition, 48 h; in the data active = GI50 below about 0.43 µM; inactive = the rest
Select the matching outcome among label 1 (active), label 0 (inactive)

Compound	Class
C#CCNC(=O)c1cccc2c1cc(C)n2-c1nc2c(c(NCc3ccccc3)n1)CCCC2	label 1
Cc1cc(-c2cnn3c(NCC4CC(C)(O)C4)cc(Oc4cccnc4)nc23)ccc1C(=O)NC1CC1 (stereo not given)	label 0
O=S(=O)(NC1=NCCN1C(=S)SN1CCn2c1nsc2=S)c1cccc(Cl)c1	label 0

Ask | Query: recorded result category for "COc1cc2cc(Oc3ccc(NC(=O)Nc4ccc(Cl)c(C(F)(F)F)c4)cc3)c(C)nc2cc1OCCN1CCOCC1" in this test
Reply | label 0

Ask | Query: recorded result category for "COC(=O)Nc1nc2ccc(Oc3ccc(NC(=O)Nc4cc(C(F)(F)F)ccc4F)cc3)cc2s1" in this test
Reply | label 0

* * *

System: SK-MEL-5 melanoma
Assay: NCI tumour cell line growth inhibition, 48 h
Observed Property: TGI (µM)
Numbers only, in µM.

// batch mode: one TGI value per listed entry
1. O=C(CC1(O)C(=O)Nc2c(Cl)ccc(Cl)c21)c1ccc(F)cc1 (configuration not stated)
2. CN(C)CCNC(=O)c1cccc2ccc(-c3ccncc3)nc12
3. COc1ccc2nc3c(C(=O)NCCN(C)C)cccc3nc2c1
4. O=c1oc2ccccc2cc1-c1csc(Nc2ccc(F)cc2)n1
5. CCC/C=C/c1cc2c(cc1O)CC[C@@H]1[C@@H]2CC[C@]2(C)[C@@H](O)CC[C@@H]12
6. COc1cc[nH]c1/C=C1\C(=O)Nc2ccc(F)c(C#CC3(O)CCNCC3)c21

Reply |
[38.6, 3.54, 15.7, 23.9, 30.2, 0.968]

// batch mode: one TGI value per listed entry
1. O=C1Nc2ccccc2C1(c1ccc(O)cc1)c1ccc(O)cc1
2. COc1ccc2c(c1)CCCN2c1c2ccccc2nc2ccccc12
3. NC(=O)NS(=O)(=O)c1ccc(N2N=C(C(F)(F)F)CC2c2cc(C(F)(F)F)cc(C(F)(F)F)c2)cc1 (configuration not stated)
4. CCOCC(=O)N[C@H]1CCc2cc(OC)c(OC)c(OC)c2-c2ccc(OC)c(=O)cc21
5. Cc1ccc(/C(Cl)=C/C=C(C#N)C#N)cc1
6. Cc1cc(Cl)cc2c1NC(=O)C2(O)CC(=O)c1ccco1 (configuration not stated)
7. CC/C=C\C[C@@H](O)C/C=C1/C(=O)C=C[C@H]1C/C=C\CCCC(=O)OC
8. O=C(O)C(=Cc1ccc(-c2ccccc2)cc1)C(=O)O

Reply |
29.3
1.66
12
0.36
4.01
51.5
3.25
23.9
